target.or.system: Tubulin (Homo sapiens) (UniProt P68371+Q9H4B7+P0DPH7+P68366+Q13509+Q71U36+P04350+Q3ZCM7+P07437+P68363+Q9BQE3+Q6PEY2+Q13885+Q9BVA1+Q9BUF5)
assay.overview: Inhibition of tubulin polymerization (unknown origin) at 20 uM by spectrophotometric analysis
Assay type: protein-complex assay
Note that class boundaries on inhibition are lower range = under 30%, middle range = from 30% up to 60%, upper range = 60% and over

In plain terms, what class is CCN(CC)CCNc1ccc2nc3c4ccccc4c(=O)n(CCc4ccc(OC)cc4)c3n2c1 ?
lower range

In plain terms, what class is COc1ccc(CCn2c(=O)c3ccccc3c3nc4ccc(NCCN5CCOCC5)cn4c32)cc1 ?
lower range

In plain terms, what class is CC[C@]1(O)C[C@H]2CN(CCc3c([nH]c4ccccc34)[C@@](C(=O)OC)(c3cc4c(cc3OC)N(C=O)[C@H]3[C@@](O)(C(=O)OC)[C@H](OC(C)=O)[C@]5(CC)C=CCN6CC[C@]43[C@@H]65)C2)C1 [VINCRISTINE] ?
upper range

In plain terms, what class is COc1ccc(CCn2c(=O)c3ccccc3c3nc4ccc(NCCCn5ccnc5)cn4c32)cc1 ?
middle range

In plain terms, what class is COc1ccc(CCn2c(=O)c3ccccc3c3nc4ccc(NCc5ccccn5)cn4c32)cc1 ?
lower range

In plain terms, what class is COc1ccc(CCn2c(=O)c3ccccc3c3nc4ccc(-n5ccnc5)cn4c32)cc1 ?
middle range

In plain terms, what class is COc1ccc(CCn2c(=O)c3ccccc3c3nc4ccc(NCCO)cn4c32)cc1 ?
lower range

In plain terms, what class is COc1ccc(CCn2c(=O)c3ccccc3c3nc4ccccn4c32)cc1 ?
upper range

In plain terms, what class is COc1ccc(CCn2c(=O)c3ccccc3c3nc4ccc(NCc5cccnc5)cn4c32)cc1 ?
upper range

In plain terms, what class is COc1ccc(CCn2c(=O)c3ccccc3c3nc4ccc(NCc5ccncc5)cn4c32)cc1 ?
upper range
